Consider the following molecules; for each one, report its IC50.
System: HCT116 human colon cancer cell line
Experiment: Cytotoxic activity of dimers against HCT116 cells
Type: cell-based
Conditions: Table 4

(Q) Need IC50 of COc1ccc(C2=CN3C(=O)c4cc5c(cc4N=C[C@@H]3C2)OCCCOc2cc3c(cc2OCCCCCCCCO5)C(=O)N2C=C(c4ccc(OC)cc4)C[C@H]2C=N3)cc1 [IIc-7] , thanks.
(A) 0.17 nM

(Q) Look up IC50 for this molecule: C=C1C[C@H]2C=Nc3cc4c(cc3C(=O)N2C1)OCCCCCCCCOc1cc2c(cc1OCCCO4)N=C[C@@H]1Cc3ccc(N)cc3CN1C2=O [IId-2]
(A) 0.11 nM

(Q) What IC50 value was documented for this molecule, O=C1c2cc3c(cc2N=C[C@@H]2CC(c4ccccc4)=CN12)OCCCOc1cc2c(cc1OCCOCCOCCO3)C(=O)N1C=C(c3ccccc3)C[C@H]1C=N2 [IIc-6] ?
(A) 0.13 nM

(Q) Would you mind telling me what IC50 value was observed for CN1CCN(c2ccc(C3=CN4C(=O)c5cc6c(cc5NC[C@@H]4C3)OCCCOc3cc4c(cc3OCCCCCCCCO6)C(=O)N3C=C(c5ccc(N6CCN(C)CC6)cc5)C[C@H]3CN4)cc2)CC1 [IId-4] ?
(A) 2 nM

(Q) Need IC50 of C=C1C[C@H]2C=Nc3cc4c(cc3C(=O)N2C1)OCCCCNCCCCOc1cc2c(cc1OCCCO4)N=C[C@@H]1CC(=C)CN1C2=O [IIa-14] , thanks.
(A) 38 nM

(Q) So what's the measured IC50 for this one? Nc1ccc(CN2CCCCOc3cc4c(cc3OCCCOc3cc5c(cc3OCCCC2)C(=O)N2Cc3ccccc3C[C@H]2C=N5)N=C[C@@H]2Cc3ccccc3CN2C4=O)cc1 [IIb-8]
(A) 0.015 nM

(Q) Quick one: IC50 for CN1CCN(c2ccc(C3=CN4C(=O)c5cc6c(cc5N=C[C@@H]4C3)OCCCOc3cc4c(cc3OCCCCCCCCO6)C(=O)N3C=C(c5ccc(N)cc5)C[C@H]3C=N4)cc2)CC1 [IIc-10] ?
(A) 0.022 nM

(Q) Recorded IC50 of COCCOc1ccc(C2=CN3C(=O)c4cc5c(cc4N=C[C@@H]3C2)OCCCOc2cc3c(cc2OCCCCCCCCCCCCO5)C(=O)N2C=C(c4ccc(OCCOC)cc4)C[C@H]2C=N3)cc1 [IIc-3] , please.
(A) 13 nM

(Q) Dear colleague, I am looking for the recorded IC50 of the following molecule: O=C1c2cc3c(cc2N=C[C@@H]2Cc4ccccc4CN12)OCCCOc1cc2c(cc1OCCCCNCCCCO3)C(=O)N1Cc3ccccc3C[C@H]1C=N2 [IIb-5]
(A) 0.077 nM

(Q) IC50 lookup needed for COc1ccc(C2=CN3C(=O)c4cc5c(cc4N=C[C@@H]3C2)OCCCOc2cc3c(cc2OCCCCCCCCCCCCO5)C(=O)N2C=C(c4ccc(OC)cc4)C[C@H]2C=N3)cc1 [IIc-2] , thanks.
(A) 48 nM

(Q) Any idea what its IC50 is? The molecule is O=C1c2cc3c(cc2N=C[C@@H]2Cc4ccccc4CN12)OCCCOc1cc2c(cc1OCCOCCOCCO3)C(=O)N1Cc3ccccc3C[C@H]1C=N2 [IIb-4]
(A) 0.068 nM

(Q) Need IC50 of C=C1C[C@H]2C=Nc3cc4c(cc3C(=O)N2C1)OCCOCCOCCOc1cc2c(cc1OCCCO4)N=C[C@@H]1CC(=C)CN1C2=O [IIa-13] , thanks.
(A) 32 nM

(Q) Which IC50 value belongs to CN1CCN(c2ccc(C3=CN4C(=O)c5cc6c(cc5N=C[C@@H]4C3)OCCCOc3cc4c(cc3OCCCCCCCCO6)C(=O)N3C=C(c5ccc(N6CCN(C)CC6)cc5)C[C@H]3C=N4)cc2)CC1 [IIc-8] ?
(A) 0.006 nM
